Reported Residual activity [%] values follow for various binders
- target: T1, VLP2 (virus-like particles of AAV2) (AAV2, UniProt P03135 1-735; P03135 1-598; P03135 1-533)
- T1 construct: Empty AAV2 capsid; background says about 60 protein molecules, VP1:VP2:VP3 = 1:1:10; Immobilised on the ELISA plate
- T1 sequence (P03135 whole entry, chain 1 of 3): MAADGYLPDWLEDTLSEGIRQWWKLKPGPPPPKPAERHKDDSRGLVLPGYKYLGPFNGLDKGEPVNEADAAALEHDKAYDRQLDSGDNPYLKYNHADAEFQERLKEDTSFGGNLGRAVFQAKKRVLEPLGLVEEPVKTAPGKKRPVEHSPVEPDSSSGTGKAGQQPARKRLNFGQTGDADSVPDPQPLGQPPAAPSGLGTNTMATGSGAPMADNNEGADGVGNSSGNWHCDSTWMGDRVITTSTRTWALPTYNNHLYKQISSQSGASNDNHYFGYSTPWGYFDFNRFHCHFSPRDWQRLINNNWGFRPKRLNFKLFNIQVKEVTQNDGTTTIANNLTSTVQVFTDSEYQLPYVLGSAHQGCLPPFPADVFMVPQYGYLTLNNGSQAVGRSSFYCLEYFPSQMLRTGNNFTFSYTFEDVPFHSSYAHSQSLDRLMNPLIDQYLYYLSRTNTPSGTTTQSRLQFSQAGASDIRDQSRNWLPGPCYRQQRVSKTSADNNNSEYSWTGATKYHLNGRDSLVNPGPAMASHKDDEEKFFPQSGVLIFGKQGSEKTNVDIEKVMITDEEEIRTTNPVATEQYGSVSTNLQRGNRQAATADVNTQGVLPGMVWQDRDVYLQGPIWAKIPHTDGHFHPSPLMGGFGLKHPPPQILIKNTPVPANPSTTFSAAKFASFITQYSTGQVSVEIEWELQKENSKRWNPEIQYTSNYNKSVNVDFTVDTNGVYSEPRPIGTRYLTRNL
- T1 sequence (P03135 139-735, tags left off, chain 2 of 3): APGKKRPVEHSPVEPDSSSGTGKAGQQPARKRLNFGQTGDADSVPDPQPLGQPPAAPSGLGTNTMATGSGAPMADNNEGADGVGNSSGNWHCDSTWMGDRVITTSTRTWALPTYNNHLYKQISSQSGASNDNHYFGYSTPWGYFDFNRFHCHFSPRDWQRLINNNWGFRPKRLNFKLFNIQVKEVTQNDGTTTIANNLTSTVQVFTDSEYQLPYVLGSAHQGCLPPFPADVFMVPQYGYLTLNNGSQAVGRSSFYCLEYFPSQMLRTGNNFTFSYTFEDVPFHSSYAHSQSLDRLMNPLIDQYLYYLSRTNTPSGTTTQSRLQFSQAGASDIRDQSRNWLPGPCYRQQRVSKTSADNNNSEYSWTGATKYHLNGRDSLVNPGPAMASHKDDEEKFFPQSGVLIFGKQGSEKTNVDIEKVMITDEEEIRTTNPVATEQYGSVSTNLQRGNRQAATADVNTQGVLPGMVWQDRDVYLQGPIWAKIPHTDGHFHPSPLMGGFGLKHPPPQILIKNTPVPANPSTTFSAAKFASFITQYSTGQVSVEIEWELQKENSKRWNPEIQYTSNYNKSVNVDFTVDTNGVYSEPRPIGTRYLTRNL
- T1 sequence (P03135 203-735, chain 3 of 3): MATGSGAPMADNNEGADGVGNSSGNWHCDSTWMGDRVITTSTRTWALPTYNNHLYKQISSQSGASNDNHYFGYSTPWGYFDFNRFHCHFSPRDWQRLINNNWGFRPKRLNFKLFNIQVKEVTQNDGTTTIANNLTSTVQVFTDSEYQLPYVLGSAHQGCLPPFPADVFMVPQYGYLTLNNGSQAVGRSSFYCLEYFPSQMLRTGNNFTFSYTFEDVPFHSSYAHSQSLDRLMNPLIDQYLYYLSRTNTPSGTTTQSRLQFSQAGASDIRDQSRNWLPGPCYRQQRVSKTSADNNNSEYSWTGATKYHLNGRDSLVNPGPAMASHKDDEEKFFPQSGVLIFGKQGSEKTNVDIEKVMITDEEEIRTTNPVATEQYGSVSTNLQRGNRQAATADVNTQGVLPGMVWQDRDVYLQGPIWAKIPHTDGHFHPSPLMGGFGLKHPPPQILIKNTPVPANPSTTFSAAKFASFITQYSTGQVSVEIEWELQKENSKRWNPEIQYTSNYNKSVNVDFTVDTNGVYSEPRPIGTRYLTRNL
- test protocol: ELISA on VLP2; binding after 43°C 15 min / untreated
Hey, just the number and the unit after it is fine.

binder	reported
AAV-binding protein No. 31 (Tyr342His, Ile349Thr) (receptor) MGSAGESVQITLPKNEVQLNAYVLQEPPKGETHTYDWQLTTHPRDYSGEMEGKHSQILKLSKLTPGLYEFKVIVEGQNAHGEGYVNVTVKPEPRKNRPPIAIVSPQFQEISLPTTSTVIDGSQSTDDDKIVQYHWEELKGPLREEKISEDTAILKLSKLVPGNYTFSLTVVDSDGATNSTTANLTVNKAVDHHHHHH	66.8%
AAV-binding protein No. 35 (Gln347Leu, Thr373Ala) (receptor) MGSAGESVQITLPKNEVQLNAYVLQEPPKGETYTYDWLLITHPRDYSGEMEGKHSQILKLSKLAPGLYEFKVIVEGQNAHGEGYVNVTVKPEPRKNRPPIAIVSPQFQEISLPTTSTVIDGSQSTDDDKIVQYHWEELKGPLREEKISEDTAILKLSKLVPGNYTFSLTVVDSDGATNSTTANLTVNKAVDHHHHHH	85.9%
AAV-binding protein No. 43 (Leu321Pro, Tyr342Asn, Ala461Ser) (receptor) MGSAGESVQITPPKNEVQLNAYVLQEPPKGETNTYDWQLITHPRDYSGEMEGKHSQILKLSKLTPGLYEFKVIVEGQNAHGEGYVNVTVKPEPRKNRPPIAIVSPQFQEISLPTTSTVIDGSQSTDDDKIVQYHWEELKGPLREEKISEDTSILKLSKLVPGNYTFSLTVVDSDGATNSTTANLTVNKAVDHHHHHH	84.1%

Note: attention shifts to another entry.
Fill in Residual activity [%] for record AVR2 (AAV-binding protein No. 32, Tyr342Cys-Gly390Ser substitution product) (receptor) MGSAGESVQITLPKNEVQLNAYVLQEPPKGETCTYDWQLITHPRDYSGEMEGKHSQILKLSKLTPGLYEFKVIVEGQNAHSEGYVNVTVKPEPRKNRPPIAIVSPQFQEISLPTTSTVIDGSQSTDDDKIVQYHWEELKGPLREEKISEDTAILKLSKLVPGNYTFSLTVVDSDGATNSTTANLTVNKAVDHHHHHH
97.6%
